assay: Pharmacokinetic study, plasma and brain levels by LC-MS/MS; details: C57BL/6J, mouse, plasma, sc
assay.metric: concentration at 20 min (nM)
One number for each entry, in nM.

Task: Quick check: concentration at 20 min of CC[C@@H]1CN2CC[C@]3(Nc4cccc(OC)c4C3=O)[C@@H]2C[C@@H]1/C(=C\OC)C(=O)OC ?
Result: 410

* * *

assay: Lethality; assay type: in vivo, mouse; details: 129Sv6, mouse, in vivo, po
assay.metric: LD50 (mg/kg)
Numbers only, in mg/kg.

Task: Quick check: LD50 of CC[C@@H]1CN2CCc3c([nH]c4cccc(OC)c34)[C@@H]2C[C@@H]1/C(=C\OC)C(=O)OC ?
Result: 750
